# Tested Target: hCA XII (Homo sapiens)
# Sequence (O43570 25-354): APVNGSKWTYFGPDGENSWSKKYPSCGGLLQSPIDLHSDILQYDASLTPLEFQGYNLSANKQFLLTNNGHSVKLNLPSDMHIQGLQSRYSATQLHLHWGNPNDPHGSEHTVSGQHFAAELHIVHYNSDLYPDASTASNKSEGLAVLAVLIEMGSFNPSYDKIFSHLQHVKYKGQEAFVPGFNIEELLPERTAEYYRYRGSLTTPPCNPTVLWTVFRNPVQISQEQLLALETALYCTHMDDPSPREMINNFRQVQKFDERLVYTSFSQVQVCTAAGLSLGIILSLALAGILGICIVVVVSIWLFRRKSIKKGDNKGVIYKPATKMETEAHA
Ki values for the compounds below.
Put down the number, then write its unit next to it.

Cc1cc(Cl)ccc1NC(=O)Nc1ccc2oc(=O)ccc2c1 | 0.0431 µM
Cc1cc(C)cc(NC(=O)Nc2ccc3oc(=O)ccc3c2)c1 | 0.0274 µM

Q) Given the compound "O=C(Nc1ccc2oc(=O)ccc2c1)Nc1ccc(Cl)cc1Cl" , what is its reported Ki?
A) 0.0567 µM

Q) Given the compound "CCCCOc1ccc(NC(=O)Nc2ccc3oc(=O)ccc3c2)cc1" , what is its reported Ki?
A) 0.0818 µM

Q) Given the compound "O=C(Nc1ccc2oc(=O)ccc2c1)c1cc(C(F)(F)F)cc(C(F)(F)F)c1" , what is its reported Ki?
A) 0.0375 µM

Q) Given the compound "O=C(Nc1ccc2oc(=O)ccc2c1)Nc1ccc(F)cc1F" , what is its reported Ki?
A) 0.0072 µM

Q) Given the compound "O=C(Nc1ccc(Cl)c(C(F)(F)F)c1)Nc1ccc2oc(=O)ccc2c1" , what is its reported Ki?
A) 0.0294 µM

Q) Given the compound "O=C(Nc1cccc(C(F)(F)F)c1)Nc1ccc2oc(=O)ccc2c1" , what is its reported Ki?
A) 0.0262 µM

Q) Given the compound "O=C(Nc1ccc2oc(=O)ccc2c1)c1cc(F)cc(F)c1" , what is its reported Ki?
A) 0.0405 µM

* * *

melting point values for the compounds below.

Solved cases (3 shown):
O=C(Nc1ccc2oc(=O)ccc2c1)c1cc(F)cc(F)c1 | 301 to 303 °C
O=C(Nc1ccc(F)c(Cl)c1)Nc1ccc2oc(=O)ccc2c1 | 232 to 233 °C
O=C(Nc1cc(Cl)cc(Cl)c1)Nc1ccc2oc(=O)ccc2c1 | 252 to 253 °C

Shifting focus to the compound that follows.
Q) Given the compound "O=C(Nc1cccc(C(F)(F)F)c1)Nc1ccc2oc(=O)ccc2c1" , what is its reported melting point?
A) 252 to 254 °C

* * *

# Test system: HCT-116 cells
# Assay Protocol: MTT antiproliferative assay, HCT-116
# Type: cell-based, human
# Stated Conditions: Homo sapiens, HCT-116, HCT116, 10 µM, mean ± SEM of three experiments, read-out: % Growth inhibition HCT116 10 µM
# Procedure: Encouraged by the favourable selectivity profile of ureidocoumarins 5a–p and amidocoumarins 7a–c towards hCA IX and hCA XII, they were further examined for their prospective antiproliferative activity against human colorectal (HCT-116) and breast (MCF-7) cancer cell lines, adopting the MTT assay. The evaluation of anticancer activity of the target compounds was conducted by MTT assay adopting the literature procedure.
Observable: inhibition at 10 µM (%)
Respond numerically; units are % and should not be typed.

Solved cases (3 shown):
O=C(Nc1ccc2oc(=O)ccc2c1)c1cc(C(F)(F)F)cc(C(F)(F)F)c1 | 19.6
O=C(Nc1ccc(C(F)(F)F)cc1)Nc1ccc2oc(=O)ccc2c1 | 7.6
CCCCOc1ccc(NC(=O)Nc2ccc3oc(=O)ccc3c2)cc1 | 15

Q) Given the compound "O=C(Nc1ccc(Cl)c(C(F)(F)F)c1)Nc1ccc2oc(=O)ccc2c1" , what is its reported inhibition at 10 µM?
A) 15.2

Q) Given the compound "Cc1cccc(Cl)c1NC(=O)Nc1ccc2oc(=O)ccc2c1" , what is its reported inhibition at 10 µM?
A) 9.7

* * *

# Tested on: HCT-116 cells
# Assay Protocol: MTT antiproliferative assay, HCT-116
# Type: cell-based, human
# Stated Conditions: Homo sapiens, HCT-116, HCT116, 10 µM, mean ± SEM of three experiments, read-out: % Growth inhibition HCT116 10 µM
inhibition at 10 µM values for the compounds below.

Solved cases (5 shown):
O=C(Nc1ccc(Br)cc1)Nc1ccc2oc(=O)ccc2c1 | 25.4%
O=C(Nc1ccc2oc(=O)ccc2c1)Nc1c(Br)cc(F)cc1Br | 14.1%
O=C(Nc1ccc2oc(=O)ccc2c1)Nc1ccc(F)cc1F | 25.7%
O=C(Nc1cc(Cl)cc(Cl)c1)Nc1ccc2oc(=O)ccc2c1 | 19.2%
O=C(Nc1ccc2oc(=O)ccc2c1)c1cc(F)cc(F)c1 | 21.8%

Q) Given the compound "O=C(Nc1ccc(F)cc1)Nc1ccc2oc(=O)ccc2c1" , what is its reported inhibition at 10 µM?
A) 10.9%

Q) Given the compound "CCCCc1ccc(NC(=O)Nc2ccc3oc(=O)ccc3c2)cc1" , what is its reported inhibition at 10 µM?
A) 20.1%

Q) Given the compound "O=C(Nc1ccc(F)c(Cl)c1)Nc1ccc2oc(=O)ccc2c1" , what is its reported inhibition at 10 µM?
A) 11.9%
